test: Rodent pharmacokinetic study; type: in vivo, Male Wister rats; conditions: plasma; Wistar/Male rat, 10 mg/kg, oral (gavage)
observed-property: half-life (h)
Answers are plain numbers, in h.

[[record]]
structure_smiles_string = "COCCN1CCC(c2nnc(-c3cc(Cl)c(N)c4c3OCCC4)o2)CC1"
result_units = "h"
experimental_value = 1.01

[[record]]
structure_smiles_string = "CC(C)n1nc(-c2nnc(C3CCN(CC4CC4)CC3)o2)c2ccccc21"
result_units = "h"
experimental_value = 1.38

[[record]]
structure_smiles_string = "Nc1c(Cl)cc(-c2nnc(CCCN3CCCCC3)o2)c2c1CCCO2.O=C(O)C(O)C(O)C(=O)O"
result_units = "h"
experimental_value = 1.03

[[record]]
structure_smiles_string = "CCOC(=O)N1CCC(N2CCC(c3nnc(-c4cc(Cl)c(N)c5c4OCCC5)o3)CC2)CC1"
result_units = "h"
experimental_value = 1.48

[[record]]
structure_smiles_string = "Nc1c(Cl)cc(-c2nnc(C3CCN(C4CCC4)CC3)o2)c2c1CCCO2"
result_units = "h"
experimental_value = 0.96


Here is the next item to consider.
Looking for the measured half-life of "CC(C)CCN1CCC(c2nnc(-c3cc(Cl)c(N)c4c3OCCC4)o2)CC1" , can you help? 1.49

----------
assay: Rodent pharmacokinetic study; format: in vivo, Male Wister rats; conditions: male, Wistar, rat, plasma, po, 10 mg/kg
observed-property: AUC(0-t)
Answer with the figure and its unit, nothing else.

Looking for the measured AUC(0-t) of "Nc1c(Cl)cc(-c2nnc(CC3CCN(C4CCCC4)CC3)o2)c2c1CCCO2.O=C(O)C(=O)O" , can you help? 1.49 µg·h/mL

----------
experiment: Rodent pharmacokinetic study; assay type: in vivo, Male Wister rats; conditions: male, Wistar, rat, plasma, po, 10 mg/kg
observed-property: half-life (h)
One number for each entry, in h.

Looking for the measured half-life of "Nc1c(Cl)cc(-c2nnc(CC3CCN(C4CCCC4)CC3)o2)c2c1CCCO2.O=C(O)C(=O)O" , can you help? 1.57

----------
assay: Rodent brain penetration study; conditions: male, Wistar, rat, brain homogenate and plasma, po, 10 mg/kg
I'd be grateful if you could share measured Kp for these entries.
Numbers only.

For each entry beneath this line, provide reported Kp.
1. COCCN1CCC(c2nnc(-c3cc(Cl)c(N)c4c3OCCC4)o2)CC1 [Example 8]
2. Nc1c(Cl)cc(-c2nnc(CC3CCN(C4CCCC4)CC3)o2)c2c1CCCO2.O=C(O)C(=O)O [Example 21, oxalate salt]
3. Nc1c(Cl)cc(-c2nnc(CCCN3CCCCC3)o2)c2c1CCCO2.O=C(O)C(O)C(O)C(=O)O [Example 20]
4. Nc1c(Cl)cc(-c2nnc(C3CCN(C4CCC4)CC3)o2)c2c1CCCO2 [Example 14]

0.56
0.62
0.5
2.24

----------
I'd be grateful if you could share measured EC50 for these entries.
Target: recombinant human 5-HT4 receptor (Homo sapiens (Human), UniProt Q13639)
Sequence (Q13639 whole entry): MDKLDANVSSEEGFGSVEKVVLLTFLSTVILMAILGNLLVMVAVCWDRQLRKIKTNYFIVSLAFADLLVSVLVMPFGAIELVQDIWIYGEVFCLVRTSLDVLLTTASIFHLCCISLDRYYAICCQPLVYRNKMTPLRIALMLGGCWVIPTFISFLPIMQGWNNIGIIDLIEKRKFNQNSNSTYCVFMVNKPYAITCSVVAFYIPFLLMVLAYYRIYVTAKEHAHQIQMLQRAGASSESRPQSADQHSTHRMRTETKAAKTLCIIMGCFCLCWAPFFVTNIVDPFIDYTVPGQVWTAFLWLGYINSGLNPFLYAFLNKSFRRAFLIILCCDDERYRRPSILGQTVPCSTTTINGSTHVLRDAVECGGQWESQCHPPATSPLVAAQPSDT
Test: Determination of EC50 values for 5-HT4 receptor (CHO cells, pCRE-Luc reporter)
Conditions: CHO cells expressing human 5-HT4 receptor, luciferase activity, 4 hours incubation
Experimental: A stable CHO cell line expressing recombinant human 5-HT4 receptor and pCRE-Luc reporter system was used for cell-based assay. The assay offers a non-radioactive based approach to determine binding of a compound to GPCRs. In this specific assay, the level of intracellular cyclic AMP which is modulated by activation or inhibition of the receptor is measured. The recombinant cells harbor luciferase reporter gene under the control of cAMP response element. […]
Where a name gives a salt, the structure may show the parent alone.

Known results for compounds:
[[record]]
compound = "CCOC(=O)N1CCC(N2CCC(c3nnc(-c4cc(Cl)c(N)c5c4OCCO5)o3)CC2)CC1 [Example 6, oxalate salt]"
observed_property = "EC50"
experimental_value = "4.2 nM"

[[record]]
compound = "COCCCN1CCC(c2nnc(-c3cc(Cl)c(N)c4c3OCCO4)o2)CC1 [Example 31, oxalate salt]"
observed_property = "EC50"
experimental_value = "16.9 nM"

[[record]]
compound = "Nc1c(Cl)cc(-c2nnc(C3CCN(CC4CCOCC4)CC3)o2)c2c1CCO2 [Example 33, oxalate]"
observed_property = "EC50"
experimental_value = "21 nM"

[[record]]
compound = "Nc1c(Cl)cc(-c2nnc(C3CCN(C4CC4)CC3)o2)c2c1CCO2 [Example 27, oxalate salt]"
observed_property = "EC50"
experimental_value = "60 nM"

[[record]]
compound = "COCCCN1CCC(c2nnc(-c3cc(Cl)c(N)c4c3OCCC4)o2)CC1"
observed_property = "EC50"
experimental_value = "20.4 nM"

[[record]]
compound = "Nc1c(Cl)cc(-c2nnc(C3CCN(CC4CCOCC4)CC3)o2)c2c1CCCO2.O=C(O)C(=O)O [Example 26, oxalate salt]"
observed_property = "EC50"
experimental_value = "18 nM"


Here is the next item to consider.
Looking for the measured EC50 of Nc1c(Cl)cc(-c2nnc(C3CCN(C4CCOCC4)CC3)o2)c2c1OCCO2 [Example 30, oxalate salt] , can you help? 7.3 nM
